// reported pIC50 for each item listed
- EXPERIMENTAL_TARGET: UniProt P11362
- Sequence (P11362 22-822): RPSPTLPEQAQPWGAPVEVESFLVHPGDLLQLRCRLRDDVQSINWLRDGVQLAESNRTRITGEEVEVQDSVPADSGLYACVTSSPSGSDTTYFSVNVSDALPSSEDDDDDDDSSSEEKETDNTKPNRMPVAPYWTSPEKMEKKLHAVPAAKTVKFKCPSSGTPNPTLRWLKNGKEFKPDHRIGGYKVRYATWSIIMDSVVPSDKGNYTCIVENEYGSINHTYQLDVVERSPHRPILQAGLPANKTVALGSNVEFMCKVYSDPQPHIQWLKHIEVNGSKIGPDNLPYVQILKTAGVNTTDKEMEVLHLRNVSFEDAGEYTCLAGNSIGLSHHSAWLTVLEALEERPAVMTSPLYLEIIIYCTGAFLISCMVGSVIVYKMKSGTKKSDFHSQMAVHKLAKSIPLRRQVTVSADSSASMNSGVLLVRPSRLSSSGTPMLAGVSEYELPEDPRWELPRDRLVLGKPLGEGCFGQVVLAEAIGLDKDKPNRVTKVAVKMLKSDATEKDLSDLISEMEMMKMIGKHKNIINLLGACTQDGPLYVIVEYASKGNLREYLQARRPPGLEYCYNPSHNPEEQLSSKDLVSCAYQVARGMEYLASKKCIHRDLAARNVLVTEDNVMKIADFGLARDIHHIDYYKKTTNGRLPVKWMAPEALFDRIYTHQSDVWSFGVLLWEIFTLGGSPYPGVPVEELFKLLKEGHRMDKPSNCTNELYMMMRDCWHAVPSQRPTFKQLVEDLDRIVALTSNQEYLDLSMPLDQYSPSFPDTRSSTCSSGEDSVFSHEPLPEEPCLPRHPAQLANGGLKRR
- METHOD_NOTES: FGFR Kinase assay - Caliper Echo Dosing
- Assay type: biochemical
- ASSAY_CONTEXT: FGFR1 7.2 nM, 408 uM ATP, acoustic dosing; geometric mean of n
The meaning of pIC50 here: minus log10 of the concentration in molar units.

COc1cc(CCc2cc(NC(=O)c3cnc(N4CCC(N(C)C)C4)cn3)[nH]n2)cc(OC)c1 (stereo not shown) ... 8.62
COc1cc(COc2cc(NC(=O)c3cnc(N4C[C@@H](C)N(C)[C@@H](C)C4)cn3)[nH]n2)cc(OC)c1 ... 9.23
COc1cc(COc2cc(NC(=O)c3ccc(N4CCN(C5CC5)CC4)cc3)[nH]n2)cc(OC)c1 ... 9.03
COc1cc(COc2cc(NC(=O)c3ccc(C4CCN(C)CC4)cc3)[nH]n2)cc(OC)c1 ... 9.03
COc1cc(COc2cc(NC(=O)c3cnc(N4CCN5CCCCC5C4)nc3)[nH]n2)cc(OC)c1 (stereo not shown) ... 8.48

// query Look up pIC50 for this molecule: COc1cc(COc2cc(NC(=O)c3cnc(N4CCN(C)C(C)C4)nc3)[nH]n2)cc(OC)c1 (stereo not shown)
// result 8.44

// query Another molecule to look at: COc1cc(CCc2cc(NC(=O)c3ccc(N4CCCN(C)CC4)s3)[nH]n2)cc(OC)c1
// result 8.68

// query Next record, please: CCN1CCN(c2ccc(C(=O)Nc3cc(CCc4cc(OC)cc(OC)c4)n[nH]3)cc2)CC1
// result 8.77

// query Another molecule to look at: COc1cc(COc2cc(NC(=O)c3cnc(N4CCN(C5CC5)CC4)nc3)[nH]n2)cc(OC)c1
// result 8.41

// query Same for COc1cc(COc2cc(NC(=O)c3ccc(N4CCNC(C)(C)C4)cc3)[nH]n2)cc(OC)c1
// result 9.12

// query Would you mind doing COc1cc(CCc2cc(NC(=O)c3ccc(N4CCNC(C)(C)C4)cc3)[nH]n2)cc(OC)c1 as well?
// result 9.33
